FYI, the data here is from ChEMBL document CHEMBL4513216.

tested on: Plasmodium berghei; assay: Screen against P. berghei liver stage (PbLuc), transformed with Luciferase, at 10uM; assay type: functional, HepG2; details: tested at 10 uM
In all, about 69,000 compounds went through this assay and about 8,600 (12%) showed an effect of 50% or more. This excerpt belongs to a sample that is enriched for strong results.
quantity: INHIBITION (%)
Express it in %; write the number only.

Kindly note: Plasmodium berghei, CN(C)c1ncc(CNC(=O)Nc2ccccc2C(F)(F)F)n1C , INHIBITION value reported: 36.9

Kindly note: Plasmodium berghei, Cc1occc1C(=O)NCc1cccnc1N(C)C , INHIBITION value reported: 33.15

Kindly note: Plasmodium berghei, CN(C)c1ncc(CNC(=O)Nc2ccc(C(F)(F)F)cc2)n1C , INHIBITION value reported: 78.6

Kindly note: Plasmodium berghei, CC(C)[C@@H]1CN(c2ccc(F)cn2)C[C@H]1NS(C)(=O)=O , INHIBITION value reported: 30.9

Kindly note: Plasmodium berghei, CN(C)c1ncc(CNC(=O)Nc2ccccc2F)n1C , INHIBITION value reported: 48.9

Kindly note: Plasmodium berghei, Cc1nc2cc(C(=O)N3C[C@@H](NS(C)(=O)=O)[C@H](C(C)C)C3)ccc2[nH]1 , INHIBITION value reported: 39
